- Test system: 997726-040-R-J2-PDC tumor spheroids, viability;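 further: spheroids exposed to compounds for seven days before readout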
- method: Anticancer human tumor 997726-040-R-J2-PDC patient-derived squamous cell lung carcinoma cell line growth inhibition [PI3K]; active means viability on the fitted dose curve at most 10% of control; inactive means the rest
- cond: second compound 0.1 µM; first compound 10 µM; spheroids with HUVEC and MSC
Write down the outcome that applies. Available outcomes: 1 for active, 0 for inactive

Solved cases (4 shown):
# compound, study_target, class_name
measured = [
    ("C=CC(=O)N1CCN(c2nc(=O)n(-c3c(C)ccnc3C(C)C)c3nc(-c4c(O)cccc4F)c(F)cc23)C(C)C1 (stereo not given) + Cc1nc(NC(=O)N2CCCC2C(N)=O)sc1-c1ccnc(C(C)(C)C(F)(F)F)c1", "997726-040-R-J2-PDC tumor spheroids, viability", 0),
    ("CC(Cn1ccc(-c2ccc(C#N)c(Cl)c2)n1)NC(=O)c1cc(C(C)O)[nH]n1 (stereo not given) + CC(Nc1ccc2c(c1)OCCn1cc(N3C(=O)OCC3C(F)F)nc1-2)C(N)=O", "997726-040-R-J2-PDC tumor spheroids, viability", 0),
    ("Cn1ncc(Cl)c1-c1cc(C(=O)NC(CN)Cc2cccc(F)c2)sc1Cl (stereo not given) + COc1c(OCCCN2CCOCC2)ccc2c3n(c(=NC(=O)c4cnc(N)nc4)nc12)CCN3", "997726-040-R-J2-PDC tumor spheroids, viability", 1),
    ("CNC(=O)c1ccc(N2C(=S)N(c3ccc(C#N)c(C(F)(F)F)c3)C(=O)C2(C)C)cc1F + COc1c(OCCCN2CCOCC2)ccc2c3n(c(=NC(=O)c4cnc(N)nc4)nc12)CCN3", "997726-040-R-J2-PDC tumor spheroids, viability", 0),
]

Dear all, I need the recorded test outcome for C[C@@H](NC(=O)c1ncnc(N)c1Cl)c1ncc(C(=O)Nc2cc(C(F)(F)F)c(Cl)cn2)s1 + Cc1nc(NC(=O)N2CCCC2C(N)=O)sc1-c1ccnc(C(C)(C)C(F)(F)F)c1 , thank you. 0

Values compiled from PubChem BioAssay AID1963964.
